Experiment: recombinant UMI read abundance after kanamycin selection (control-corrected) (log10(CPM+1)); higher = more efficient recombination; extreme values may be limits of the assay; sequences stand for … in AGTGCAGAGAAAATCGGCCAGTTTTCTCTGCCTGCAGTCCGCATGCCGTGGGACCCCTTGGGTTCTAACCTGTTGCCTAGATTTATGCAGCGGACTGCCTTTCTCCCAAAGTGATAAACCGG…AGGTTGGTTTCACT; site = the 11-nt donor;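 also: IS621 bridge recombinase in Escherichia coli cells against a fixed T5 target plasmid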
REPORTED_METRIC: recombinant UMI read abundance (log10)

Dear colleague, could you send me recombinant UMI read abundance (log10) for each of the items below? Thanks.
1. ATCAGAACATGGACCGGTTTTCCCGGTAATCCGTATTTGAT (site ATCAGAACTAT)
2. ATTATTACATGGACCGGTTTTCCCGGTAATCCGTATTTGCA (site ATTATTACTTG)
3. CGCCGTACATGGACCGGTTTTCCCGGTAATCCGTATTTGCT (site CACCGTACTAG)
4. AAGTTGGCATGGACCGGTTTTCCCGGTAATCCGTATTTGCA (site AAGTTGGCTTG)

Marked response:
1: 1.88; 2: 1.8; 3: 0.33; 4: 2.05

Each sequence below has a recorded value; state its recombinant UMI read abundance (log10).
1. GGACCGGCATGGACCGGTTTTCCCGGTAATCCGTATTTGGG (site GGACCGGCTCC)
2. ACACGAACATGGACCGGTTTTCCCGGTAATCCGTATTTGTG (site ACACGAACTAA)
3. TTTGCAGCATGGACCGGTTTTCCCGGTAATCCGTATTTGCT (site TTTGCCGCTAG)
4. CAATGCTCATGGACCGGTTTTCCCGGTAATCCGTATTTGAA (site CAACGCTCTTT)

Marked response:
[0.0163, 0.269, 0.0123, 1.58]

* * *

Assay: recombinant UMI read abundance after kanamycin selection (control-corrected) (log10(CPM+1)); higher = more efficient recombination; extreme values may be limits of the assay; sequences stand for … in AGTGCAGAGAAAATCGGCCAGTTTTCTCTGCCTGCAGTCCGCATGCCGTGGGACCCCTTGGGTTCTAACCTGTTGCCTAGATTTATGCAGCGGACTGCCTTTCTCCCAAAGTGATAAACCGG…AGGTTGGTTTCACT; site = the 11-nt donor
REPORTED_METRIC: recombinant UMI read abundance (log10)

sequence_record="ATAGGTACATGGACCGGTTTTCCCGGTAATCCGTATTTGAC (site GTAGGTACTGT)" observed_measurement=1.68
sequence_record="ACTAGATCATGGACCGGTTTTCCCGGTAATCCGTATTTGAG (site ACTAGAGCTCT)" observed_measurement=0.00838

Give one value of recombinant UMI read abundance (log10) per listed sequence.
1. ATTGAGCCATGGACCGGTTTTCCCGGTAATCCGTATTTGGT (site ATTGAGTCTAC)
2. GATGTAACATGGACCGGTTTTCCCGGTAATCCGTATTTGCT (site GATGTAACTAG)
3. GAGCCCACATGGACCGGTTTTCCCGGTAATCCGTATTTGAT (site GAGCGCACTAT)
4. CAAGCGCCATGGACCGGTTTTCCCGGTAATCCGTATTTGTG (site CGAGCGCCTCA)

Marked response:
1. 0.633
2. 1.83
3. 0.0147
4. 0.0092

Give one value of recombinant UMI read abundance (log10) per listed sequence.
1. CCGTTTACATGGACCGGTTTTCCCGGTAATCCGTATTTGCA (site CCGTTTACTGG)
2. CTATACACATGGACCGGTTTTCCCGGTAATCCGTATTTGCT (site CTTTACACTAG)
3. AATGTGTCATGGACCGGTTTTCCCGGTAATCCGTATTTGAG (site AATGTGTCTCT)
4. GGCAATCCATGGACCGGTTTTCCCGGTAATCCGTATTTGAG (site GGCAATCCTTT)

Marked response:
[0, 0.92, 1.82, 0.0105]

Below are 4 sequences. Give each one its recombinant UMI read abundance (log10).
1. GAATGCTCATGGACCGGTTTTCCCGGTAATCCGTATTTGAA (site TAATGCTCTTT)
2. GCCACGCCATGGACCGGTTTTCCCGGTAATCCGTATTTGTG (site GCCACGCCTTA)
3. AGAAAGGCATGGACCGGTTTTCCCGGTAATCCGTATTTGCA (site AGAAAGGCTTG)
4. ACATATACATGGACCGGTTTTCCCGGTAATCCGTATTTGTG (site ACATATACTCA)

Marked response:
[0.684, 0.0106, 1.9, 1.81]
